Tested on: cancer cells
Assay: MTT cytotoxic assay of esterification products (Cytotoxicity activity)
Assay type: cell-based, human
Conditions: E4A esterified with Crotonoyl chloride (Cro = Crotonoyl), compounds isolated with HPLC
REPORTED METRIC: Cytotoxicity activity

# COMPOUND, VAL
data = [
    ("CC=CC(=O)OCC12C(O)CC3(C)C(=CCC4C5(C)CCC(OC(=O)C=CC)C(C)(CO)C5CCC43C)C1CC(C)(C)C(O)C2O (stereo not drawn)", "moderate"),
    ("CC=CC(=O)OCC1(C)C(O)CCC2(C)C1CCC1(C)C2CC=C2C3CC(C)(C)C(OC(=O)C=CC)C(OC(=O)C=CC)C3(COC(=O)C=CC)C(O)CC21C (stereo not drawn)", "weak"),
    ("CC=CC(=O)OCC12C(O)CC3(C)C(=CCC4C5(C)CCC(O)C(C)(CO)C5CCC43C)C1CC(C)(C)C(OC(=O)C=CC)C2O (stereo not drawn)", "moderate"),
    ("CC=CC(=O)OC1C(OC(=O)C=CC)C2(CO)C(O)CC3(C)C(=CCC4C5(C)CCC(O)C(C)(CO)C5CCC43C)C2CC1(C)C (stereo not drawn)", "moderate"),
    ("CC=CC(=O)OCC1(C)C(OC(=O)C=CC)CCC2(C)C1CCC1(C)C2CC=C2C3CC(C)(C)C(O)C(O)C3(COC(=O)C=CC)C(OC(=O)C=CC)CC21C (stereo not drawn)", "weak"),
]

For CC=CC(=O)OCC1(C)C(OC(=O)C=CC)CCC2(C)C1CCC1(C)C2CC=C2C3CC(C)(C)C(O)C(OC(=O)C=CC)C3(COC(=O)C=CC)C(O)CC21C (stereo not drawn) [Compound I9] , what is its reported Cytotoxicity activity?
weak

May I ask what Cytotoxicity activity has been recorded for CC=CC(=O)OCC12C(O)CC3(C)C(=CCC4C5(C)CCC(O)C(C)(CO)C5CCC43C)C1CC(C)(C)C(O)C2OC(=O)C=CC (stereo not drawn) ?
moderate

Find the recorded Cytotoxicity activity belonging to CC=CC(=O)OCC12C(O)CC3(C)C(=CCC4C5(C)CCC(O)C(C)(CO)C5CCC43C)C1CC(C)(C)C(OC(=O)C=CC)C2OC(=O)C=CC (stereo not drawn) and report it.
moderate

// returns reported Cytotoxicity activity for input CC=CC(=O)OCC12C(O)CC3(C)C(=CCC4C5(C)CCC(O)C(C)(CO)C5CCC43C)C1CC(C)(C)C(O)C2O (stereo not drawn)
moderate

For the compound CC=CC(=O)OCC1(C)C(O)CCC2(C)C1CCC1(C)C2CC=C2C3CC(C)(C)C(OC(=O)C=CC)C(O)C3(COC(=O)C=CC)C(O)CC21C (stereo not drawn) , what Cytotoxicity activity is on record?
moderate

What does the data say about its Cytotoxicity activity? Entry: CC=CC(=O)OCC1(C)C(OC(=O)C=CC)CCC2(C)C1CCC1(C)C2CC=C2C3CC(C)(C)C(O)C(OC(=O)C=CC)C3(COC(=O)C=CC)C(O)CC21C (stereo not drawn) [Compound I14]
weak

Cytotoxicity activity lookup needed for CC=CC(=O)OCC1(C)C(OC(=O)C=CC)CCC2(C)C1CCC1(C)C2CC=C2C3CC(C)(C)C(OC(=O)C=CC)C(O)C3(COC(=O)C=CC)C(OC(=O)C=CC)CC21C (stereo not drawn) , thanks.
weak

These entries and their values trace back to patent US20230340012A1.
